Reported values of Onset time for individual entries
System: Sprague-Dawley rats
measurement.description: Continuous infusion at 2 times the MIR for 1 hour, Group B compounds
Type: in vivo
study.conditions: continuous tail vein infusion at 2 times the MIR, emulsion, rats

Record excerpt, results attached:
molecule	recorded.value
C[C@H](c1ccccc1)n1nncc1C(=O)OC(C)(C)C	5 to 6 min
C[C@H](c1ccccc1)n1nncc1C(=O)OC1CCC1	4 to 6 min
C[C@H](c1ccccc1)n1nnc(Cl)c1C(=O)SC1CCC1	3 to 5 min
CCOC(=O)c1c(Br)nnn1[C@H](C)c1ccccc1	6 to 7 min

Onset time measured on C[C@H](c1ccccc1)n1nncc1C(=O)OC1(C)COC1 = 5 to 6 min

Lookup result for CCOC(=O)c1nnn([C@H](C)c2ccccc2)c1Br ; measured Onset time: 5 to 6 min

The molecule identified as CCOC(=O)c1cncn1C(C)c1ccccc1 (stereo not shown) [Etomidate, reference compound] registered its Onset time at 4 to 5 min

The molecule listed as C=C=CC1(OC(=O)c2cnnn2[C@H](C)c2ccccc2)COC1 has a reported Onset time of 3 to 4 min

Reported Onset time ( CC(=O)C1=C(OC(=O)c2c(F)nnn2[C@H](C)c2ccccc2)CCCC1 ) = 3 to 4 min

Noted for COC(=O)C1(OC(=O)c2cncn2[C@H](C)c2ccccc2)CC1 [CPMM, cyclopropyl methoxycarbonyl metamidate, reference compound] : its Onset time reads 3 to 4 min

---

System: SD rats
study.conditions: continuous infusion 2 x MIR 1 hour; rats affected/rats
Recorded Types and incidence of adverse reactions: Tremor, one value per entry.

Here's what some known entries look like.
compound	target.under.test	recorded.value
CCOCC(=O)c1cncn1[C@H](C)c1ccccc1 [Compound C34]	SD rats	2/6
CCOC(=O)c1cncn1C(C)c1ccccc1 (stereo not shown) [Etomidate, reference compound]	SD rats	6/6
C#CCOCC(=O)c1cc(F)nn1[C@H](C)c1ccccc1 [Compound C15]	SD rats	1/6

Looking up COC(=O)C1(OC(=O)c2cncn2[C@H](C)c2ccccc2)CC1 [CPMM, cyclopropyl methoxycarbonyl metamidate, reference compound] , I found its Types and incidence of adverse reactions: Tremor recorded as 4/6

---

Reported Approximate therapeutic index values for a set of compounds
System: Sprague-Dawley rats
measurement.description: animal or person
Type: in vivo
study.conditions: rats

Please review the following examples before continuing.
compound	target.under.test	Approximate therapeutic index
C=CCOC(OC)(OC)C(=O)c1ccnn1[C@H](C)c1ccccc1 [Compound D7]	Sprague-Dawley rats	>5.4
COC(OC)(OC)C(=O)c1cnnn1[C@H](C)c1ccccc1 [Compound D42]	Sprague-Dawley rats	>4.2
COC(OC)(OC)C(=O)c1ccnn1[C@H](C)c1ccccc1 [Compound D1]	Sprague-Dawley rats	>8.4
C[C@H](c1ccccc1)n1cncc1C(=O)C(=O)OCC(C)(C)C [Compound D86]	Sprague-Dawley rats	>7.3
CCOC(OCC)C(=O)c1cncn1[C@H](C)c1ccccc1 [Compound D88]	Sprague-Dawley rats	>10.3
CCOC(OCC)(OCC)C(=O)c1cncn1[C@H](C)c1ccccc1 [Compound D76]	Sprague-Dawley rats	>31.8
COC(=O)C1(OC(=O)c2cncn2[C@H](C)c2ccccc2)CC1 [CPMM, cyclopropyl methoxycarbonyl metamidate, reference compound]	Sprague-Dawley rats	42.0
CCOC(OCC)C(=O)c1c(F)ncn1[C@H](C)c1ccccc1 [Compound D101]	Sprague-Dawley rats	>10.5

For record COC(OC)(OC)C(=O)c1c(F)ncn1[C@H](C)c1ccccc1 [Compound D93] the listed Approximate therapeutic index is >25.1
